Field: IC50. System: Cytochrome P450 3A4 (Homo sapiens, UniProt P08684). Provenance: assorted publications.

Below are worked cases with known answers.
Input line: Given the entry C[C@@]1(c2cc(-c3cccnc3F)ccc2F)Cc2nccn2C(N)=N1 , report its measured IC50.
Output line: > 20 µM

Input line: Given the entry CCc1nnc2n1CCN(C(=O)c1cncn1[C@@H](C)c1ccccc1-c1ccc(F)cc1)C2 , report its measured IC50.
Output line: 0.0057 µM

Input line: Given the entry Cl.O=C(Cc1ccc(-c2ccccc2)cc1)Nc1cc(C2CC2)n[nH]1 , report its measured IC50.
Output line: > 20 µM

Input line: Given the entry O=C(Nc1ccc(OC(F)(F)F)cc1)c1cc(F)cnc1NCc1ccnc2[nH]ccc12 , report its measured IC50.
Output line: > 20 µM

Input line: Given the entry O=C(NCCS(=O)(=O)c1ccc(C(F)(F)F)cn1)c1ccc(B2C=CCCN2)cc1 , report its measured IC50.
Output line: > 20 µM

More entries:
Input line: Given the entry COc1ccc2c(c1OCc1ccccc1)C[C@@H](C(=O)O)N(C(=O)[C@@H](O[C@H]1CC[C@@H](O)CC1)c1ccccc1)C2 , report its measured IC50.
Output line: > 50 µM

Input line: Given the entry C[C@@H](c1ccccc1-c1ccc(F)cc1)n1cncc1C(=O)N1CCC(N2CC[C@@H](O)[C@H](F)C2)CC1 , report its measured IC50.
Output line: 0.0061 µM

Input line: Given the entry Nc1ccc(-c2ccncc2)cc1NC(=O)c1cnc(N2CCNCC2)s1 , report its measured IC50.
Output line: 9.5 µM

* * *

pIC50: −log10 of the molar value.
Field: pIC50. System: Cytochrome P450 3A4 (Homo sapiens, UniProt P08684). Provenance: assorted publications.

Below are worked cases with known answers.
Input line: Enter reported pIC50 observed with Cytochrome P450 3A4 (Homo sapiens, UniProt P08684) for Cc1cc(-c2ccc([C@H](C)N3CC[C@](CCCNS(C)(=O)=O)(c4ccc(F)cc4)OC3=O)cc2)ccn1
Output line: 4.89

Input line: Enter reported pIC50 observed with Cytochrome P450 3A4 (Homo sapiens, UniProt P08684) for NC(=O)c1cc(Cc2cnc(Nc3ccc(Cl)cc3)c3ccccc23)ccn1
Output line: 5.92

Input line: Enter reported pIC50 observed with Cytochrome P450 3A4 (Homo sapiens, UniProt P08684) for COCCN1CCC(c2cc(OC3CC3)c(Nc3ncc(Cl)c(Nc4cn(C)nc4S(=O)(=O)C(C)C)n3)cc2C)CC1
Output line: < 5.00

Input line: Enter reported pIC50 observed with Cytochrome P450 3A4 (Homo sapiens, UniProt P08684) for N#Cc1ccc(C(=O)Nc2cccc(C/N=C(\N)OCCCO)c2)nc1
Output line: < 4.70

More entries:
Input line: Enter reported pIC50 observed with Cytochrome P450 3A4 (Homo sapiens, UniProt P08684) for C[C@@H]1CN(C2CCN(C(=O)c3cncn3[C@@H](C)c3ccccc3-c3ccc(F)cc3)CC2)CC[C@@H]1O
Output line: 8.31

Input line: Enter reported pIC50 observed with Cytochrome P450 3A4 (Homo sapiens, UniProt P08684) for O=C(O)[C@@H]1CCCN(S(=O)(=O)c2ccccc2C(F)(F)F)C1
Output line: < 4.30

Input line: Enter reported pIC50 observed with Cytochrome P450 3A4 (Homo sapiens, UniProt P08684) for CC1(C)SC(N2CCOc3cccnc32)=NC1=O
Output line: < 4.70

Input line: Enter reported pIC50 observed with Cytochrome P450 3A4 (Homo sapiens, UniProt P08684) for CC(=O)N1CCN([C@H]2CC[C@H](c3cc(OC4CC4)c(Nc4ncc(Cl)c(Nc5cn(C)nc5S(=O)(=O)C(C)C)n4)cc3C)CC2)CC1
Output line: < 5.00
